# ASSAY_EXPLANATION: RP-UPLC retention time, used as measure of peptide hydrophobicity
# Type: physicochemical
# CONDITION_SET: RP-UPLC-MS; chromatographic
Ends that are not written are not given here.
READOUT_KIND: UPLC retention time (measure of hydrophobicity) (min)

Worked cases, answers included:
substance="VFPGVFPGVFPGVFPG-NH2 [(VFPG)4, H-(VFPG)n-NH2 (n = 4)]" measure_unit=min test_result=2.493
substance="AADAACFPGVFPGVFPGVFPGV-NH2 [AADAAC-(FPGV)4, H-AADAAC-(FPGV)4-NH2]" measure_unit=min test_result=2.496
substance="FPGVFPGVFPGVFPGV-NH2 [(FPGV)4]" measure_unit=min test_result=2.431
substance="FPGVGFPGVGFPGVGFPGVG-NH2 [(FPGVG)4, reference compound]" measure_unit=min test_result=2.251
substance="FPGVFPGV-NH2 [(FPGV)2]" measure_unit=min test_result=0.583
substance="FPGVFPGVFPGV-NH2 [(FPGV)3]" measure_unit=min test_result=1.739

A. FPGFPGV-NH2 [(FPG)(FPGV), H-(FPG)(FPGV)-NH2]
B. FPGFPGFPGFPG-NH2 [(FPG)4, H-(FPG)4-NH2]
C. FPGVGFPGVGFPGVGFPGVGFPGVG-NH2 [(FPGVG)5, reference compound]
D. FPGVFPG-NH2 [(FPGV)(FPG)]
Problem: Put these in order: smallest UPLC retention time (measure of hydrophobicity) first, largest last. Put the labels in the order asked and list them.
Result: D, A, B, C
